Data origin: BindingDB's records for doi:10.1124/mol.64.6.1342

// Protein kinase C delta type (Homo sapiens) Ki records
A number alone suffices; assume pM.

Item: C=C(C)C12OC3(c4ccccc4)OC1C1C4OC4(CO)C(O)C4(O)C(=O)C(C)=CC4C1(O3)C(C)C2OC(=O)C=CC=Cc1ccccc1 (stereo not drawn) Test system: Protein kinase C delta type (Homo sapiens) Read-out: Ki Value: ?
550

Item: CC1=CC2C(O)(CC(CO)=CC3C4C(C)(C)C4(OC(=O)Cc4ccccc4)CC(C)C32O)C1=O (stereo not drawn) Test system: Protein kinase C delta type (Homo sapiens) Read-out: Ki Value: ?
560

Item: CCCCCCCCc1ccc2c3c(c[nH]c13)CC(CO)NC(=O)C(C(C)C)N2C (stereo not drawn) Test system: Protein kinase C delta type (Homo sapiens) Read-out: Ki Value: ?
770
